Tested on: K562 (human chronic myelocytic leukemia)
Experimental details: Alamar Blue cytotoxicity assay, K562
Assay type: cell-based
Recorded conditions: 72 h incubation, value in brackets
Readout kind: IC50 (µM)
State just the number; it will be interpreted in µM.

Reference set (2 entries):
{"Compound": "COc1cc2c(cc1O)CCN1Cc3c(ccc(O)c3OC)CC21 (single isomer, unassigned; (+)) [(+)-Discretamine, (+)-discretamine]", "Readout kind": "IC50", "Numeric value": 32.4}
{"Compound": "COc1cc2c(cc1OC)-c1c(OC)c(OC)cc3c1C(C2)NCC3 (single isomer, unassigned; (+)) [(+)-Norglaucine, (+)-norglaucine]", "Readout kind": "IC50", "Numeric value": 22.9}

System K562 (human chronic myelocytic leukemia). Read-out IC50. Item c1ccc2c(c1)C[C@H]1NCCc3cc4c(c-2c31)OCO4 [(+)-Anonaine, (+)-anonaine] . Report value.
39.9
